target: Human Factor D (Homo sapiens (Human), UniProt P00746); assay: Human Factor D Assay; format: biochemical; conditions: Human Factor D, Table 3; read-out: IC50
Sequence (P00746 26-253): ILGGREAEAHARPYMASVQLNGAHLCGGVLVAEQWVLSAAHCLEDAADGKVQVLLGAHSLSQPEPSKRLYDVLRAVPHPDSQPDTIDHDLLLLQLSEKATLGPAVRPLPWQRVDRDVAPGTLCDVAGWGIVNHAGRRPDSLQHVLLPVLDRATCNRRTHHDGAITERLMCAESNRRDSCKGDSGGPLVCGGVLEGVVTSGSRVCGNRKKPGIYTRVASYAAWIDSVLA
property measured: IC50

Answered examples (5):
- compound: "CC(=O)c1cn(CC(=O)N2C[C@H](F)C[C@H]2C(=O)NCCc2ccccc2)c2ccc(-c3cnc4cc(C)nn4c3)cc12"
  IC50: "< 1000 nM"
- compound: "CC(=O)c1nn(CC(=O)N2[C@@H]3C[C@@H]3C[C@H]2C(=O)Nc2cncc(Br)n2)c2ccc(-c3ccc4nc(C)nn4c3)cc12"
  IC50: "< 1000 nM"
- compound: "CC(=O)c1nn(CC(=O)N2C[C@H](F)C[C@H]2C(=O)Nc2cccc(Br)n2)c2ccc(-c3cnc4cc(C(F)(F)F)nn4c3)cc12"
  IC50: "< 1000 nM"
- compound: "CC(=O)c1nn(CC(=O)N2[C@@H]3C[C@@H]3C[C@H]2C(=O)NC2CCN(CC(F)(F)F)C2)c2ccc(-c3cnc(C)nc3)cc12 (stereo partly drawn)"
  IC50: "< 1000 nM"
- compound: "CC(=O)c1nn(CC(=O)N2C[C@H](F)C[C@H]2C(=O)Nc2cc(Cl)cc(Br)n2)c2ccc(-c3cnc4cc(C)nn4c3)cc12"
  IC50: "< 1000 nM"

q: Requested read-out: IC50. Entry: CC(=O)c1cn(CC(=O)N2C[C@H](F)C[C@H]2C(=O)Nc2cc(C)cc(Br)n2)c2ccc(-c3cnc4cc(C)nn4c3)cc12
a: < 1000 nM

q: State the recorded IC50 for this entry: CC(=O)c1nn(CC(=O)N2CCOC[C@H]2C(=O)Nc2cccc(Br)n2)c2ccc(-c3cnc(C)nc3)cc12
a: < 1000 nM

q: Quick one: IC50 of NC(=O)c1nn(CC(=O)N2C[C@H](F)C[C@H]2C(=O)Nc2cccc(Br)n2)cc1-c1cnn(C2CC2)c1 ?
a: > 10000 nM

q: Fill blank: measured IC50 of the compound CC(=O)c1nn(CC(=O)N2C[C@H]3C[C@H]3[C@H]2C(=O)Nc2nc(Br)ccc2C2CC2)c2ccc(-c3cnc(C)nc3)cc12 is ____.
a: < 1000 nM
